Source: patent US20200002303A1

Provide the recorded HAI titer EC>90 for the entries that follow.
Target: FimH (Escherichia coli, UniProt Q1R2J4)
Construct: performed with UTI89 bacteria and guinea pig red blood cells; endogenous in cells; host or cells: UTI89 bacteria (whole cells, type 1 piliated)
Type: cell-based
Conditions: concentration reducing bacterial agglutination of guinea pig red blood cells by greater than 90%; UTI89 bacteria
The number alone won't do; follow it with the unit.

## Input Give a short answer stating reported HAI titer EC>90 for `CNC(=O)c1cccc(-c2ccc(C(F)(F)[C@H]3O[C@H](CO)[C@@H](O)[C@H](O)[C@@H]3O)c(C)c2)c1` .
## Output 1.5 µM

## Input Read the entry `CNC(=O)c1cncc(-c2ccc([C@@H](O)[C@H]3O[C@H](CO)[C@@H](O)[C@H](O)[C@@H]3O)c(C)c2)c1` and write its reported HAI titer EC>90.
## Output 0.01 µM

## Input Tell us which HAI titer EC>90 value is on record for `Cc1cc(-n2cc(-c3cccnc3)nn2)ccc1[C@@H](O)[C@H]1O[C@H](CO)[C@@H](O)[C@H](O)[C@@H]1O`
## Output 0.015 µM

## Input Query HAI titer EC>90 for `Cc1cc(-c2cccc3cnccc23)ccc1[C@@H](O)[C@H]1O[C@H](CO)[C@@H](O)[C@H](O)[C@@H]1O`
## Output 0.125 µM
